The reader will find reported pEC50 values listed item by item below.
test system: HCV replicon in Huh7 cells; experiment: HCV replicon cell-based assay; set-up: species or system HCV strain 1B; conditions: Hepatitis C virus, Huh-7; HCV replicon, Huh7 cells; read-out: EC50 range
pEC50: −log10 of the molar value.

>>> reported_value("C=C[C@@H]1C[C@]1(NC(=O)[C@@H]1CC(Oc2nccc3cc(OC)ccc23)CN1C(=O)[C@@H](NC(=O)COC)C(C)(C)C)C(=O)NS(=O)(=O)C1CC1 (stereo partly shown)")
"6.00 to 7.00"
>>> reported_value("C=C[C@@H]1C[C@]1(NC(=O)[C@@H]1CC(Oc2nc(-c3ccccc3)cc3ccccc23)CN1C(=O)[C@@H](NC(=O)OC(C)(C)C)[C@H](C)OCC)C(=O)NS(=O)(=O)C1CC1 (stereo partly shown)")
"> 7.00"
>>> reported_value("C=CC1C[C@]1(NC(=O)[C@@H]1C[C@@H](Oc2nccc3cc(C(=O)N(C)C)ccc23)CN1C(=O)[C@@H](NC(=O)OC(C)(C)C)C(C)(C)C)C(=O)NS(=O)(=O)C1CC1 (stereo partly shown)")
"4.00 to 5.00"
>>> reported_value("C=C[C@@H]1C[C@]1(NC(=O)[C@@H]1C[C@@H](Oc2ncc(Cl)c3ccccc23)CN1C(=O)[C@@H](NC(=O)OC(C)(C)C)C(C)(C)C)C(=O)NS(=O)(=O)C1CC1")
"> 7.00"
>>> reported_value("C=CC1C[C@]1(NC(=O)[C@@H]1C[C@@H](Oc2nccc3c(SC)c(OC)ccc23)CN1C(=O)[C@@H](NC(=O)OC(C)(C)C)C(C)(C)C)C(=O)NS(=O)(=O)C1CC1 (stereo partly shown)")
"> 7.00"
>>> reported_value("C=C[C@@H]1C[C@]1(NC(=O)[C@@H]1C[C@@H](Oc2nccc3cc(OC)ccc23)CN1C(=O)[C@@H](NC(=O)OC(C)C)C(C)(C)C)C(=O)NS(=O)(=O)C1CC1")
"> 7.00"
>>> reported_value("C=C[C@@H]1C[C@]1(NC(=O)[C@@H]1C[C@@H](Oc2ccc3c(OC)cnc(Cl)c3c2)CN1C(=O)[C@@H](NC(=O)OC(C)(C)C)C(C)(C)C)C(=O)NS(=O)(=O)C1CC1")
"6.00 to 7.00"
>>> reported_value("C=C[C@@H]1C[C@]1(NC(=O)[C@@H]1CC(Oc2nc(-c3ccccc3)cc3ccccc23)CN1C(=O)[C@@H](NC(=O)OC(C)(C)C)[C@H](C)OC)C(=O)NS(=O)(=O)C1CC1 (stereo partly shown)")
"> 7.00"
>>> reported_value("C=C[C@@H]1C[C@]1(NC(=O)[C@@H]1C[C@@H](Oc2nc(-c3cc(OC)no3)cc3cc(OC)ccc23)CN1C(=O)[C@@H](NC(=O)OC(C)(C)C)C(C)(C)C)C(=O)NS(=O)(=O)C1CC1")
"> 7.00"
>>> reported_value("C=C[C@@H]1C[C@]1(NC(=O)[C@@H]1C[C@@H](Oc2nccc3cc(OC)ccc23)CN1C(=O)[C@@H](NC(=O)OC(C)(C)C)[C@@H](C)OCc1ccccc1)C(=O)NS(=O)(=O)C1CC1")
"6.00 to 7.00"

Ask: pEC50 lookup needed for C=C[C@@H]1C[C@]1(NC(=O)[C@@H]1C[C@@H](Oc2nccc3c(OC)c(Cl)ccc23)CN1C(=O)[C@@H](NC(=O)OC(C)(C)C)C(C)(C)C)C(=O)NS(=O)(=O)C1CC1 , thanks.
Reply: > 7.00

Ask: pEC50 lookup needed for C=C[C@@H]1C[C@]1(NC(=O)[C@@H]1C[C@@H](Oc2nccc3cc(OC)ccc23)CN1C(=O)[C@@H](NC(=O)OC(C)(C)C)[C@H](C)OC(C)(C)C)C(=O)NS(=O)(=O)C1CC1 , thanks.
Reply: > 7.00

Ask: What does the data say about its pEC50? Entry: C=C[C@@H]1C[C@]1(NC(=O)[C@@H]1C[C@@H](Oc2nccc3cc(OC)ccc23)CN1C(=O)[C@@H](N)[C@H](C)OC)C(=O)NS(=O)(=O)C1CC1
Reply: 5.00 to 6.00

Ask: I have this compound here, CC[C@@H]1C[C@]1(NC(=O)[C@@H]1C[C@@H](Oc2nccc3cc(OC)c(F)cc23)CN1C(=O)[C@@H](NC(=O)OC(C)(C)C)C(C)(C)C)C(=O)NS(=O)(=O)C1CC1 , and I need its recorded pEC50.
Reply: > 7.00

Ask: Look up pEC50: C=C[C@@H]1C[C@]1(NC(=O)[C@@H]1C[C@@H](Oc2ccnc(-c3ccoc3)c2)CN1C(=O)[C@@H](NC(=O)OC1CCCC1)C(C)(C)C)C(=O)NS(=O)(=O)C1CC1
Reply: 6.00 to 7.00

Ask: Entry C=C[C@@H]1C[C@]1(NC(=O)[C@@H]1C[C@@H](Oc2ccnc(-c3cccs3)c2)CN1C(=O)[C@@H](NC(=O)OC1CCCC1)C(C)(C)C)C(=O)NS(=O)(=O)C1CC1 has what pEC50?
Reply: > 7.00

Ask: Any idea what pEC50 was measured for C=C[C@@H]1CC1(NC(=O)[C@@H]1CC(Oc2nccc3cc(OC)ccc23)CN1C(=O)[C@@H](NC(=O)NC(C)(C)CC)C(C)(C)C)C(=O)NS(=O)(=O)C1CC1 (stereo partly shown) ?
Reply: > 7.00

Ask: Suppose we examine the compound C=C[C@@H]1C[C@]1(NC(=O)[C@@H]1C[C@@H](Oc2cc(-c3ccccc3OC)nc3c(C)noc23)CN1C(=O)[C@@H](NC(=O)OC(C)(C)C)C(C)(C)C)C(=O)NS(=O)(=O)C1CC1 ; what pEC50 value has been reported?
Reply: 6.00 to 7.00

Ask: Item C=CC1C[C@]1(NC(=O)[C@@H]1C[C@@H](Oc2cc(C(F)(F)F)nc3ccc(F)cc23)CN1C(=O)[C@@H](NC(=O)OC(C)(C)C)C(C)(C)C)C(=O)NS(=O)(=O)C1CC1 (stereo partly shown) has what recorded pEC50?
Reply: 6.00 to 7.00
